Tested target: SIRT6 enzyme (Homo sapiens)
Sequence (Q8N6T7 whole entry, species assumed): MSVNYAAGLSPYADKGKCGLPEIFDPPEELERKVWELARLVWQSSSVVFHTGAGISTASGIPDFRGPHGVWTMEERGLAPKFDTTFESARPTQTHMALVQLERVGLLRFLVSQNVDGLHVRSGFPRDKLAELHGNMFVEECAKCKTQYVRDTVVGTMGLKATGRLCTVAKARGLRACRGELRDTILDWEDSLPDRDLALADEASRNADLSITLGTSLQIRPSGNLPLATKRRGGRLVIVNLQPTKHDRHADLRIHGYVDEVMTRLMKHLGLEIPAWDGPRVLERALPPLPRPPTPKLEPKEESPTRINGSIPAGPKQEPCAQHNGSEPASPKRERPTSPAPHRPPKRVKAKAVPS
Assay comment: Measurement of deacetylation activity (SIRT6, AlphaLISA, H3K9(Ac) peptide)
Assay type: biochemical
Experimental conditions: SIRT6 25 ng/mL, H3K9(Ac) biotin peptide 2 nM, NAD 10 μM, room temperature 30 minutes, duplicate
Hi, to clarify the labels: Yes covers EC150 (the concentration of the compound showing a relative enzyme activity of 150%) from 2 μm upward, No covers anything below 2 μm.

Some solved cases for reference:
[[record]]
compound = "O=C(NCc1cc[nH]c(=O)c1)Nc1nc2c(s1)CN(c1nc(C3CCC(F)(F)CC3)no1)CC2 [Example 101]"
label = "No"

[[record]]
compound = "COc1ccc2oc(N3CCc4nc(NC(=O)N[C@H](C)CO)sc4C3)nc2c1 [Example 189]"
label = "No"

[[record]]
compound = "CC(C)(O)CNC(=O)Nc1nc2c(s1)[C@@H]1COC[C@H](C2)N1c1nc2cc(OCF)ccc2o1 [Example 57]"
label = "No"


Check if EC150 (the concentration of the compound showing a relative enzyme activity of 150%) >= 2 μm (inclusive). Item: C[C@H](CO)NC(=O)Nc1nc2c(s1)CN(c1nc3cc(S(C)(=O)=O)ccc3o1)C(C)(C)C2 [Example 74]
No

Check if EC150 (the concentration of the compound showing a relative enzyme activity of 150%) >= 2 μm (inclusive). Item: C[C@H](CO)NC(=O)Nc1nc2c(s1)C1COCC(C2)N1c1nc(-c2cccc(C(F)F)c2)no1 (some centres unmarked) [Example 124]
No

Check if EC150 (the concentration of the compound showing a relative enzyme activity of 150%) >= 2 μm (inclusive). Item: CNC(=O)Nc1nc2c(s1)[C@@H]1COC[C@H](C2)N1c1nc(C2CCC(F)(F)CC2)no1 [Example 7]
Yes

Check if EC150 (the concentration of the compound showing a relative enzyme activity of 150%) >= 2 μm (inclusive). Item: C[C@@H](O)CNC(=O)Nc1nc2c(s1)CN(c1cc(C3CCC(F)(F)CC3)on1)CC2 [Example 153]
Yes
